Numbers sourced from PubChem BioAssay (NCI).

# Test system: HCT-116 colon
# PROCEDURE_TEXT: NCI-60 one-dose screen, 48 h (100 = growth as untreated, 0 = no growth, -100 = all killed)
# EXPERIMENTAL_PARAMETERS: 10 µM unless noted
Compounds without any hit were thinned out: in the full panel of roughly 83,000, 20% have a hit.
Give growth for every item shown.
Answers are plain numbers, in %.

>>> obs_value("COC1=CC(c2ccc[nH]2)=N/C1=C\\c1[nH]c(C)c(CC(=O)NCc2ccccc2)c1C")
2.09

// batch mode: one growth value per listed entry
1. O=C(Nc1nc2cc(C(=O)N3CCN(C(c4ccccc4)c4ccccc4)CC3)ccc2o1)c1ccc(NC2CCCCC2)c([N+](=O)[O-])c1
2. CCOc1ccccc1Cn1ccnc1CCc1c(Cl)c(O)cc(O)c1C(=O)OC
3. CC(C)=CC(=O)OCC(=O)O[C@@H]1C[C@]2(C(C)C)O[C@@]1(C)[C@@H]1CC[C@@H](C)[C@H]1[C@@H]2OC(=O)/C=C/c1ccccc1
4. CCc1ccc(CCCC(=O)O)cc1
5. Cc1ccc(NC(=O)c2sc3nc(C)c(Br)c(C)c3c2N)cc1
6. O=S(=O)(NCCNc1nccc(-c2c(-c3ccc(F)c(O)c3)nc3occn23)n1)c1ccc(Cl)cc1
7. CCn1cc(C(=O)NNC(=S)Nc2ccc(C)cc2)c(=O)c2ccc(C)nc21
8. Clc1cccc(Nc2ncnc3ccc(-c4cnc5[nH]ccc5c4)cc23)c1

1: 40.9; 2: 89.3; 3: 72.2; 4: 98.1; 5: 72.6; 6: 60.9; 7: 93; 8: 75.1

Provide growth values for the following items, in order.
1. CN(C)c1ccc(-c2c(C#N)c(N)nn2C(=O)c2ccc(NC(=O)c3ccccn3)cc2)cc1
2. C[C@@H](CO)[C@@H]1CCC=C2CC[C@]3(C)[C@H](CC[C@@H]4[C@@]5(C)CCCNC(C)(C)[C@@H]5CC[C@]43C)[C@H]21
3. CCOC(=O)C1=C(c2ccccc2)N=C2SC=C(c3ccc(Cl)cc3)N2C1c1ccc(Br)cc1 (centres undefined)

1. 90.8
2. -20.3
3. 64.9
